Hello, the source for this data is the supplement of paper PMC10567573, in case you need it.

B1: FCHO1 (parent)
chain: DKLALCHLELTRKLQDLIKDVLRY

- Variants of: B1
- Measurement protocol: protein stability index of a GFP-peptide fusion (GPS, HEK-293T) (PSI 1-6); higher = more stable;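 note: lentivirally expressed fusions sorted by FACS into six bins by GFP to DsRed ratio, PSI derived from sequencing read proportions per bin multiplied by bin number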
- Condition description: c terminus: a fixed tail appended
Catalogue of variants with associated protein stability index

DKLALCHLELTRKLQDLIKDVTRY [L22T] :: 1.05

Next variant, please.
Fill in: protein stability index of DKVALCHLELTRKLQDLIKDVLRY [L3V] is ___
3.04
